Entry source: patent US8084469B2

- target-under-test: human protease activated receptor 1 (PAR-1) (Homo sapiens, UniProt P25116)
- Construct: the cell stably expresses the endogenous human PAR-1 receptor; endogenous in cells; only the aequorin reporter is recombinant
- protocol-text: Cellular functional in vitro test (aequorin luminescence in recombinant HEK293 PAR-1 test cell)
- stated-conditions: PAR-1 test cell (HEK293-derived), PAR-1 agonist at EC50 concentration, aequorin light signal
Provide the recorded IC50 for the entries that follow.
Numbers only, in nM.

See these solved cases before continuing.
compound | IC50 / nM
CCOc1noc(C2CC(c3ccc(CC(F)(F)F)cc3)CN(C(=O)N3CC[S+]([O-])CC3)C2)n1 (single isomer, unassigned) [Example 66] | 64.5
CCOc1noc(C2CC(c3ccc(CC(F)(F)F)cc3)CN(C(=O)N3CCS(=O)(=O)CC3)C2)n1 (single isomer, unassigned) [Example 69] | 21.1

Exercise: Observed IC50 on human protease activated receptor 1 (PAR-1) (Homo sapiens, UniProt P25116) for CCOc1noc(C2CC(c3ccc(CC)cc3)CN(C(=O)N3CC(O)C3)C2)n1 (racemic) [Example 35] , please.
Key: 35.3

* * *

- target-under-test: human protease activated receptor 1 (PAR-1) (Homo sapiens)
- Construct: the cell stably expresses the endogenous human PAR-1 receptor; endogenous in cells; only the aequorin reporter is recombinant
- Sequence (P25116 22-425): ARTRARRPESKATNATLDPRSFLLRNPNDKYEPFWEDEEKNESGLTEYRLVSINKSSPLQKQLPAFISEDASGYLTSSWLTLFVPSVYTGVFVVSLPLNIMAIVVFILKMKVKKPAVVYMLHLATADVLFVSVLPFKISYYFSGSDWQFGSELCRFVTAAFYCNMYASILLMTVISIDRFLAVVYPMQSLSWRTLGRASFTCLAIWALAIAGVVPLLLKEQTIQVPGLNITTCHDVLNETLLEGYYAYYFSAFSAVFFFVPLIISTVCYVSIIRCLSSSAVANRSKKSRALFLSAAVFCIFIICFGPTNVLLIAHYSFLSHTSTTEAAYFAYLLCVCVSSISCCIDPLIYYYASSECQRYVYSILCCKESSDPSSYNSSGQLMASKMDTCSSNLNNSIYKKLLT
- protocol-text: Cellular functional in vitro test (aequorin luminescence in recombinant HEK293 PAR-1 test cell)
- stated-conditions: PAR-1 test cell (HEK293-derived), PAR-1 agonist at EC50 concentration, aequorin light signal
I'd be grateful if you could share measured log10(IC50) for these entries.
Please keep in mind that the values are log10 of IC50 expressed in nM.

molecule | value-observed
CCOc1noc(C2CC(c3ccc(CC)c(F)c3)CN(C(=O)N3CCS(=O)(=O)CC3)C2)n1 (racemic) | 0.80
CCN(CC)c1noc(C2CC(c3ccc(C(F)(F)F)cc3)CN(C(=O)N3CCOCC3)C2)n1 (single isomer, unassigned) | 0.94
CCOc1noc(C2CC(c3ccc(CC(F)(F)F)cc3)CN(C(=O)N3CCS(=O)(=O)CC3)C2)n1 (racemic) [Example 67] | 1.08
O=C(N1CCOCC1)N1CC(c2ccc(C(F)(F)F)cc2)CC(c2nc(NC3CC3)no2)C1 (racemic) | 1.16
CC(C)Oc1noc(C2CC(c3ccc(OC(F)(F)F)cc3)CN(C(=O)N3CCSCC3)C2)n1 (racemic) | 0.23
CCOc1noc(C2CC(c3ccc(CC(F)(F)F)c(F)c3)CN(C(=O)N3CC[S+]([O-])CC3)C2)n1 (single isomer, unassigned) | 0.71
CCN(CCO)c1noc(C2CC(c3ccc(C(F)(F)F)cc3)CN(C(=O)N3CCOCC3)C2)n1 (racemic) | 1.84

Exercise: Please give the measured log10(IC50) for this molecule: CCc1ccc(C2CC(c3nc(OCCOC)no3)CN(C(=O)N3CCS(=O)(=O)CC3)C2)cc1 (single isomer, unassigned)
Key: 1.31
